Please go through the items and note down their IC50.
targetUnderTest: Induced myeloid leukemia cell differentiation protein Mcl-1 (Homo sapiens, UniProt Q07820)
Sequence (Q07820 whole entry): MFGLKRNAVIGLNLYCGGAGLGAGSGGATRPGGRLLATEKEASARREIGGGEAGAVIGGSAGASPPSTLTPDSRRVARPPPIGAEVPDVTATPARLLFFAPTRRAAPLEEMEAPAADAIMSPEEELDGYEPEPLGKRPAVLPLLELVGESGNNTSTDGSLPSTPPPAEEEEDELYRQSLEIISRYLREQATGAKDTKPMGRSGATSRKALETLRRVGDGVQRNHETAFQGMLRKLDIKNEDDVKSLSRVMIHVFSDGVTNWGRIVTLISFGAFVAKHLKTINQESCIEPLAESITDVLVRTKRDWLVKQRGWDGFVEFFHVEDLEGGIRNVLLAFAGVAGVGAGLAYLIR
test: Inhibition of Mcl1 protein by Mcl1/Bak fluorescence resonance assay
Dear colleague, please return just the value in µM, with no unit written.

Entry C=C1CO[C@@]2(OC)[C@H]3O[C@]34[C@H](OC(=O)C(O)(CO)CC(C)CC(C)CC)CC[C@H](C)[C@@]4(C)C[C@@H]12 (some centres not stated) , IC50 reported as 12.5

Entry C=C1CO[C@@]2(O)[C@H]3O[C@]34[C@H](OC(=O)C(O)(CO)CC(C)CC(C)CC)CC[C@H](C)[C@@]4(C)C[C@@H]12 (some centres not stated) [CRYPTOSPHAEROLIDE] , IC50 reported as 11.4
